List of log10 TGI values.
system: MDA-MB-468 breast; assay: NCI tumour cell line growth inhibition, 48 h
Answers are given as log10 of TGI in µM.

Some solved cases for reference:
* COc1ccc(-c2cnoc2-c2cc(OC)c3c(c2)OCCO3)cc1 | 0.01
* c1ccc(-c2nc(N3CCCNCC3)c3nc(-c4ccccc4)oc3n2)cc1 | 0.53
* COc1cc2oc(-c3cccc(C(=O)Nc4ccc(Cl)cc4)c3)cc(=O)c2c(OCCNC(=O)[C@H](CO)NC(=O)OC(C)(C)C)c1OC | 1.54
* CN(C)S(=O)(=O)c1oc(-c2ccccc2)nc1C#N | 1.52
* CC(C)[O-].CC(C)[O-].CN(CCN(C)Cc1cc(F)cc(F)c1[O-])Cc1cc(F)cc(F)c1[O-].[Ti+4] | 0.46
* Nn1c(=O)n(-c2cccc(C(F)(F)F)c2)c(=O)c2cc(-c3ccc(F)cc3F)ccc21 | 0.79

Shift focus to the following entry.
Kindly note the recorded log10 TGI for COc1cccc2c(=O)c3c(sc12)c(NCCCNCCO)nc1ccccc13 , which is 0.50

###

system: MDA-MB-468 breast; assay: NCI tumour cell line growth inhibition, 48 h; in the data active means GI50 below about 0.43 µM; inactive means the rest
Answer with one of the outcomes given here: 1 (yes) = active, 0 (no) = inactive

Examples with answers:
- COc1ccc(Nc2nccc(N3CCN(c4c5ccc(Cl)cc5nc5ccc(OC)cc45)CC3)n2)cc1: 0 (no)
- COc1ccc(-n2nc(C)c3c(Nc4ccc(NC(=O)Nc5ccc(Cl)c(C(F)(F)F)c5)cc4)ncnc32)cc1: 0 (no)
- COc1ccc(NC(=O)Cn2c(/C=C/c3cccc(Br)c3)nc3ccccc3c2=O)cc1: 0 (no)
- CCn1c(-c2nonc2N)nc2ccncc21: 0 (no)
- COc1ccc(C2=C(N3CCc4ccccc43)C(=O)NC2=O)cc1: 0 (no)
- O=[N+]([O-])c1ccc(-c2cc3c(Nc4ccc(Cl)c(C(F)(F)F)c4)ncnc3s2)cc1: 0 (no)
- CCN(CC)c1ccc(/C=C/C2=[N+](C)c3ccccc3C2(C)C)c(C)c1: 1 (yes)
- OCc1ccc(N2CCOCC2)cc1Cl: 0 (no)

Dear all, I need the recorded test outcome for O=C(c1cccs1)C1NO[N+]([O-])=C1c1cccs1 (stereo not given) , thank you.
0 (no)

Dear all, I need the recorded test outcome for O=C1/C(=C/c2ccc([N+](=O)[O-])cc2)COc2ccc(O)cc21 , thank you.
0 (no)

###

test system: MDA-MB-468 breast; test: NCI tumour cell line growth inhibition, 48 h; in the data active = GI50 below about 0.43 µM; inactive = the rest
Answer with one of the outcomes given here: active, inactive

• Nc1cc(-c2ccc(Cl)cc2)nn1-c1nnc(/C=C/c2ccco2)c(=O)[nH]1 = inactive
• CN(C)S(=O)(=O)c1oc(-c2ccccc2)nc1C#N = inactive
• [2H]c1nc(=Nc2cc(NC(=O)C=C)c(N(C)CCN(C)C)cc2OC)[nH]c(-c2cn(C([2H])([2H])[2H])c3ccccc23)c1[2H] = active
• COc1ccc(C(=O)c2nc3ccccc3n2CC(=O)c2ccc(Cl)cc2)cc1 = inactive

Dear all, I need the recorded test outcome for COc1cc2nc(-c3ccc(C(F)(F)F)cc3)cc(OCCCN3CCCC3)c2cc1OC , thank you.
inactive
